# ASSAY_SUMMARY: Binding affinity to Mycobacterium tuberculosis CysK2 by PLP fluorescence-based screening assay

{"STRUCTURE_AS_SMILES": "O=C(Nc1cccc(C(=O)O)c1)Nc1cccc(-c2ccccc2)c1", "UNIT_OF_MEASURE": "µM", "Kd": 22.6}
{"STRUCTURE_AS_SMILES": "O=C(Nc1cccc(C(=O)O)c1)Nc1ccc(Cl)c(Cl)c1", "UNIT_OF_MEASURE": "µM", "Kd": 30.1}

* * *

# Tested on: Mycobacterium tuberculosis
# ASSAY_SUMMARY: Inhibition of Mycobacterium tuberculosis CysM expressed in Escherichia coli strain BL21 (DE3) assessed as reduction in amino-acrylate intermediate formation by measuring residual enzyme activity at 100 uM incubated for 5 mins in presence of OPS by spectrophotometry
MEASUREMENT_TYPE: Activity (%)

{"STRUCTURE_AS_SMILES": "O=C(Nc1ccc([N+](=O)[O-])cc1)Nc1cccc(C(=O)O)c1", "MEASUREMENT_TYPE": "Activity", "UNIT_OF_MEASURE": "%", "OBS_VALUE": 5.7}
{"STRUCTURE_AS_SMILES": "O=C(Nc1cccc(-c2ccccc2)c1)Nc1ccc(C(=O)O)c(O)c1", "MEASUREMENT_TYPE": "Activity", "UNIT_OF_MEASURE": "%", "OBS_VALUE": 1.2}
{"STRUCTURE_AS_SMILES": "O=C(Nc1cccc(-c2ccccc2)c1)Nc1ccc(O)c(C(=O)O)c1", "MEASUREMENT_TYPE": "Activity", "UNIT_OF_MEASURE": "%", "OBS_VALUE": 0.6}
{"STRUCTURE_AS_SMILES": "O=C(Nc1ccccc1)Nc1cccc(C(=O)O)c1", "MEASUREMENT_TYPE": "Activity", "UNIT_OF_MEASURE": "%", "OBS_VALUE": 2.6}
{"STRUCTURE_AS_SMILES": "COc1ccc(NC(=O)Nc2cccc(C(=O)O)c2)cc1", "MEASUREMENT_TYPE": "Activity", "UNIT_OF_MEASURE": "%", "OBS_VALUE": 9.9}
{"STRUCTURE_AS_SMILES": "O=C(Nc1cccc(C(=O)O)c1)Nc1ccc(Cl)c(Cl)c1", "MEASUREMENT_TYPE": "Activity", "UNIT_OF_MEASURE": "%", "OBS_VALUE": 0.3}
{"STRUCTURE_AS_SMILES": "Cc1ccc(NC(=O)Nc2cccc(C(=O)O)c2)cc1", "MEASUREMENT_TYPE": "Activity", "UNIT_OF_MEASURE": "%", "OBS_VALUE": 4.9}
{"STRUCTURE_AS_SMILES": "O=C(Nc1ccc(Br)cc1)Nc1cccc(C(=O)O)c1", "MEASUREMENT_TYPE": "Activity", "UNIT_OF_MEASURE": "%", "OBS_VALUE": 1.2}
{"STRUCTURE_AS_SMILES": "O=C(Nc1cccc(C(=O)O)c1)Nc1cccc(-c2ccccc2)c1", "MEASUREMENT_TYPE": "Activity", "UNIT_OF_MEASURE": "%", "OBS_VALUE": 0.6}
{"STRUCTURE_AS_SMILES": "O=C(Nc1ccc(Cl)cc1)Nc1cccc(C(=O)O)c1", "MEASUREMENT_TYPE": "Activity", "UNIT_OF_MEASURE": "%", "OBS_VALUE": 0.6}

Values were extracted from ChEMBL document CHEMBL4680078.
